The values you see were collected from the supplement of paper PMC10567573.

B1: RHOBTB2 (parent)
chain: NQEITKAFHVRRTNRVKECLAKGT

# Variants of: B1
# procedure.details: protein stability index of a GFP-peptide fusion (GPS, HEK-293T) (PSI 1-6); higher = more stable;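 also: lentivirally expressed fusions sorted by FACS into six bins by GFP to DsRed ratio, PSI derived from sequencing read proportions per bin multiplied by bin number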
# setup.conditions: c terminus: a fixed tail appended
property: protein stability index
Note: the reply should be a number with no unit written.

Task item: Please give the measured protein stability index for this variant: NQEITKAFHVRRTNRVKECLAKGS [T24S]
Reply: 3.61

Task item: Tell me the measured protein stability index of NQEITKAFHVRRTNRVEECLAKGT [K17E] , please.
Reply: 3.04

Task item: For NQEITKAFHVRRTNRVKECVAKGT [L20V] , what is its reported protein stability index?
Reply: 4.62

Task item: Can you share its protein stability index? I mean this variant: NQEITKAFHVQRTNRVKECLAKGT [R11Q]
Reply: 4.43

Task item: Could you share which protein stability index value was measured for NQEITKAFHVRRTNRVQECLAKGT [K17Q] ?
Reply: 2.55

Task item: Please look up its protein stability index: NQEITKAFHVRRTSRVKECLAKGT [N14S]
Reply: 2.48

Task item: Need protein stability index of NQEITKAFHVRRTNRVKDCLAKGT [E18D] , thanks.
Reply: 3.47

Task item: Which measured protein stability index value corresponds to NQEITKAFHVRRTNRVKECLAKHT [G23H] ?
Reply: 2.84

Task item: Report protein stability index for NQEITKAFHVVRTNRVKECLAKGT [R11V] please.
Reply: 2.22

Task item: Recorded protein stability index of NQEITYAFHVRRTNRVKECLAKGT [K6Y] , please.
Reply: 2.25

Task item: Fill in: protein stability index of NQEITKAFHVRRINRVKECLAKGT [T13I] is ___
Reply: 2.1
